- EXPERIMENT_SUMMARY: DRUGMATRIX: Glutamate, NMDA, Agonism radioligand binding (ligand: [3H] CGP-39653)
- Format: cell membranes, Rattus norvegicus, Wistar, Cerebral cortex, Membrane
- TEST_PARAMETERS: Not Active = under 50% inhibition at 10 µM
*1 amine or outer side, *2 acyl side, *3 side chain or, on linkers, in order; H or OH if unused. Where a SMILES comes first, the peptide text is derived from it. Bridges are numbered along the chain shown (N, C = ends). Roman numbers before positions name the chains, in order. [ ]: non-standard residue; d: D form. Actinocin(1to9) = Cc1c2oc3c(C)ccc(C(=O)[*:2])c3nc-2c(C(=O)[*:1])c(N)c1=O; NMeV = CN[C@H](C(=O)O)C(C)C; Sar = CNCC(=O)O
OUTCOME_MEASURE: Ki

| COMPOUND | MEASURED_RESULT |
| --- | --- |
| CC[C@]1(O)C[C@H]2CN(CCc3c([nH]c4ccccc34)[C@@](C(=O)OC)(c3cc4c(cc3OC)N(C=O)[C@H]3[C@@](O)(C(=O)OC)[C@H](OC(C)=O)[C@]5(CC)C=CCN6CC[C@]43[C@@H]65)C2)C1 [VINCRISTINE] | Not Active |
| O=c1ncn2nc(Sc3ccc(F)cc3F)ccc2c1-c1c(Cl)cccc1Cl [NEFLAMAPIMOD] | Not Active |
| NCCCCCC(=O)O [AMINOCAPROIC ACID] | Not Active |
| CC(C)C(Br)C(=O)NC(N)=O (stereo not drawn) [BROMISOVALUM] | Not Active |
| C1CCC(C(CC2CCCCN2)C2CCCCC2)CC1 (stereo not drawn) [PERHEXILINE] | Not Active |
| CN(Cc1ccc(C(C)(C)C)cc1)Cc1cccc2ccccc12 [BUTENAFINE] | Not Active |
| C[C@@H]1CN(c2c(F)c(N)c3c(=O)c(C(=O)O)cn(C4CC4)c3c2F)C[C@H](C)N1 [SPARFLOXACIN] | Not Active |
| Clc1cccc(Cl)c1NC1=NCCN1 [CLONIDINE] | Not Active |
| C=C(C)C1(O)OC(=O)C=C1OC (stereo not drawn) [PENICILLIC ACID] | Not Active |
| CCCOc1ccccc1-c1nc2nn[nH]c2c(=O)[nH]1 [ZAPRINAST] | Not Active |
| CC1=C2C(=CO[C@H](C)[C@H]2C)C(O)=C(C(=O)O)C1=O [CITRININ] | Not Active |
| O=C(CCCN1CC=C(n2c(=O)[nH]c3ccccc32)CC1)c1ccc(F)cc1 [DROPERIDOL] | Not Active |
| CO[C@H]1/C=C/O[C@@]2(C)Oc3c(C)c(O)c4c(O)c(c(/C=N/N5CCN(C)CC5)c(O)c4c3C2=O)NC(=O)/C(C)=C\C=C\[C@H](C)[C@H](O)[C@@H](C)[C@@H](O)[C@@H](C)[C@H](OC(C)=O)[C@@H]1C [RIFAMPIN] | Not Active |
| COc1c(C)c2c(c(O)c1C/C=C(\C)CCC(=O)O)C(=O)OC2 [MYCOPHENOLIC ACID] | Not Active |
| Cc1c2oc3c(C)ccc(C(=O)N[C@@H]4C(=O)N[C@H](C(C)C)C(=O)N5CCC[C@H]5C(=O)N(C)CC(=O)N(C)[C@@H](C(C)C)C(=O)O[C@@H]4C)c3nc-2c(C(=O)N[C@@H]2C(=O)N[C@H](C(C)C)C(=O)N3CCC[C@H]3C(=O)N(C)CC(=O)N(C)[C@@H](C(C)C)C(=O)O[C@@H]2C)c(N)c1=O [DACTINOMYCIN] (I: T[dV]P[Sar][NMeV] / II: T[dV]P[Sar][NMeV]; ester I:1-I:C, II:1-II:C; linker I:N-II:N via Actinocin(1to9)) | Not Active |
| O=C1CC[C@@H](N2C(=O)c3ccccc3C2=O)C(=O)N1 | Not Active |
| CCCCc1nc(Cl)c(CO)n1Cc1ccc(-c2ccccc2-c2nnn[nH]2)cc1 [LOSARTAN] | Not Active |
| CCCN1C[C@H](CSC)C[C@@H]2c3cccc4[nH]cc(c34)C[C@H]21 [PERGOLIDE] | Not Active |
| N#CC(C#N)=Cc1ccc(O)c(O)c1 [TYRPHOSTIN 23] | Not Active |
| Cc1c(O)c(=O)ccn1C [DEFERIPRONE] | Not Active |
| CNCCCN1c2ccccc2CCc2ccccc21 [DESIPRAMINE] | Not Active |
| COc1ccc(C[C@H]2NC[C@H](O)[C@H]2OC(C)=O)cc1 [ANISOMYCIN] | Not Active |
| CSc1ccc(/C=C2/C(C)=C(CC(=O)O)c3cc(F)ccc32)cc1 [SULINDAC SULFIDE] | Not Active |
| Cc1ccccc1N1C(=O)c2cc(S(N)(=O)=O)c(Cl)cc2NC1C (stereo not drawn) [METOLAZONE] | Not Active |
| N[C@@H](Cc1ccc(O)c(O)c1)C(=O)O [LEVODOPA] | Not Active |
| Cc1ccc(-c2cc(C(F)(F)F)nn2-c2ccc(S(N)(=O)=O)cc2)cc1 [CELECOXIB] | Not Active |
| C[C@]12CC[C@@H]3c4ccc(O)cc4CC[C@H]3[C@@H]1CCC2=O [ESTRONE] | Not Active |
| Cc1onc(O)c1CC(N)C(=O)O (racemic) [(R,S)-AMPA] | Not Active |
| CCOc1ccc(NC(C)=O)cc1 [PHENACETIN] | Not Active |
| NC1=NC(=O)C(c2ccccc2)O1 (stereo not drawn) [PEMOLINE] | Not Active |
| CCCCN1CCCC[C@H]1C(=O)Nc1c(C)cccc1C [LEVOBUPIVACAINE] | Not Active |
| CC(C)CN(C[C@@H](O)[C@H](Cc1ccccc1)NC(=O)O[C@H]1CCOC1)S(=O)(=O)c1ccc(N)cc1 | Not Active |
| CN(C)c1nc(N(C)C)nc(N(C)C)n1 [ALTRETAMINE] | Not Active |

Data provenance: ChEMBL document CHEMBL1909046
